Hi there, I'd appreciate the recorded inhibition for every entry that follows.
# assayedTarget: PRKX (human) (UniProt P51817)
# Sequence (P51817 whole entry, looked up): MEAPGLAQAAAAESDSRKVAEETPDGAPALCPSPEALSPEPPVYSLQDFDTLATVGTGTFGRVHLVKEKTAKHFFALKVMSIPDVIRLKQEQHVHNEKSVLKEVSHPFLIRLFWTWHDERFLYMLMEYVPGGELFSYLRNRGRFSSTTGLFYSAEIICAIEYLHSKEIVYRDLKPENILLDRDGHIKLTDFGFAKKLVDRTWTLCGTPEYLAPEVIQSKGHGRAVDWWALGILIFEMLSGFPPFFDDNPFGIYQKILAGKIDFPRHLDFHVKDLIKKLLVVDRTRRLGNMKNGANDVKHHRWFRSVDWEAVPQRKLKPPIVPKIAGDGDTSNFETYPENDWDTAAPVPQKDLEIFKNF
# assayOverview: split-luciferase competition binding
# conditionLabel: compound 10.0 µM
Answers are plain numbers, in %.

Example entries and their recorded answers appear below.
C=CC(=O)c1ccc2ccccc2c1
0
CC(C)[C@H](CO)Nc1nc(Nc2ccc(C(=O)O)c(Cl)c2)c2ncn(C(C)C)c2n1
3
O=C(Nc1cc(C(F)(F)F)cc(C(F)(F)F)c1)c1cc(Cl)ccc1O
4
Cn1cnc2c(NCc3ccccc3)nc(NCCO)nc21
7

List reported inhibition for each of these molecules:
1. COc1cc2nccc(Oc3ccc(NC(=O)Nc4ccc(F)cc4F)c(F)c3)c2cc1OC
2. CN1CCC(Nc2ncc3ncnc(Nc4ccc(F)c(Cl)c4)c3n2)CC1
3. CC(C)[C@H](CO)Nc1nc(Nc2cccc(Cl)c2)c2ncn(C(C)C)c2n1
4. COc1ccc(Cl)cc1NC(=O)Nc1cc(C)nc2ccccc12
5. NC(=O)c1ccc(-c2nc(-c3ccccn3)c(-c3ccc4c(c3)OCCO4)[nH]2)cc1

12
6
0
1
0

List reported inhibition for each of these molecules:
1. CC1=C(O)C(=O)[C@@H]2OC2C1=O (stereo partly specified)
2. Nc1ccc(-c2cccc3c(=O)cc(N4CCOCC4)oc23)cc1

1: 0; 2: 2

----------
Hi there, I'd appreciate the recorded inhibition for every entry that follows.
# assayedTarget: AKT1 (human) (UniProt P31749)
# Sequence (P31749 whole entry, looked up): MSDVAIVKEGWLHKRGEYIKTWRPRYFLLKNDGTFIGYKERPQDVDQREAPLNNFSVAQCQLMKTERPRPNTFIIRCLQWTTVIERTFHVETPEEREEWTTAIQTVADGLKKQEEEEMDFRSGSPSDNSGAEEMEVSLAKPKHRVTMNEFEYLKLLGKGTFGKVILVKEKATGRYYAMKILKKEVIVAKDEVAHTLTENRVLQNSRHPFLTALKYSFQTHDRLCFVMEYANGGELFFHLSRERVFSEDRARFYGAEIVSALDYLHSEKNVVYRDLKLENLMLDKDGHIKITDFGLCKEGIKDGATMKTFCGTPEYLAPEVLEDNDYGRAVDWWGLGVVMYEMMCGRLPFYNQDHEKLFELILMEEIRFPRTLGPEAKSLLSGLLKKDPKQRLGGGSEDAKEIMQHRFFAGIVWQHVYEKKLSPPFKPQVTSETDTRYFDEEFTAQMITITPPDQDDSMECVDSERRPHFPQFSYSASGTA
# assayOverview: split-luciferase competition binding
# conditionLabel: compound 10.0 µM
Your reply should be a number followed by the unit it is expressed in.

List reported inhibition for each of these compounds:
1. O=S(=O)(c1cccc2c(Cl)cccc12)N1CCCNCC1
2. O=C1NC(=O)c2c1c1c3ccccc3n3c1c1c2c2ccccc2n1C1CCC3O1
3. O=S(=O)(NCCNC/C=C/c1ccc(Br)cc1)c1cccc2cnccc12

2%
78%
21%

----------
Hi there, I'd appreciate the recorded inhibition for every entry that follows.
# assayedTarget: UniProt:P41743
# Sequence (P41743 whole entry, looked up): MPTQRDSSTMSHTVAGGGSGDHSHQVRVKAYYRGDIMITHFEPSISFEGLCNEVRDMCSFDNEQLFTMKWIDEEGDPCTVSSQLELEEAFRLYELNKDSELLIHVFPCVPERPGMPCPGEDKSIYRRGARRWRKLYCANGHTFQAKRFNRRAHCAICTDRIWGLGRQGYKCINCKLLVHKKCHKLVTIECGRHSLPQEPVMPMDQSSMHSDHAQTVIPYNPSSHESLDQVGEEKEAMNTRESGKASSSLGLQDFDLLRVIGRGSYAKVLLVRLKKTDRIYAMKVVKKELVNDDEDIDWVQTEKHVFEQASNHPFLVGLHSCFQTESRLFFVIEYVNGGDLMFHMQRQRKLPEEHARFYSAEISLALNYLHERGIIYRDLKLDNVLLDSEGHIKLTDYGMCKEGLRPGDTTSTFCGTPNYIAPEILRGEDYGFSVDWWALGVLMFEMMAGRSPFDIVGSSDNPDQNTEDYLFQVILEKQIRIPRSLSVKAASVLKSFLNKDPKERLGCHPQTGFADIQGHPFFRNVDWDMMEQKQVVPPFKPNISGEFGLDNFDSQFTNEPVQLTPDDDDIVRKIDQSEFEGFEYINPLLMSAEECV
# assayOverview: split-luciferase competition binding
# conditionLabel: compound 10.0 µM
Give bare numbers, in %.

Example entries and their recorded answers appear below.
CN1CC[C@H](c2c(O)cc(O)c3c(=O)cc(-c4ccccc4Cl)oc23)[C@H](O)C1
0
O=c1cc(N2CCOCC2)nc2c3ccccc3ccn12
0
Cc1cc2nc3c(=O)[nH]c(=O)nc-3n(C)c2cc1C=O
0
O=c1cc(N2CCOCC2)oc2c(-c3ccccc3)cccc12
0
NC(=O)c1ccc(-c2nc(-c3ccccn3)c(-c3ccc4c(c3)OCO4)[nH]2)cc1
0
COc1cc2nccc(Oc3ccc(NC(=O)Nc4ccc(F)cc4F)c(F)c3)c2cc1OC
0

List reported inhibition for each of these molecules:
1. O=C1NC(=O)c2cc(Nc3ccc(F)cc3)c(Nc3ccc(F)cc3)cc21
2. CS(=O)(=O)CCNCc1nc(-c2ccc3ncnc(Nc4ccc(OCc5cccc(F)c5)c(Cl)c4)c3c2)cs1
3. c1ccc(-c2n[nH]cc2-c2ccnc3ccccc23)nc1
4. CC(=O)c1c(O)c(C)c(O)c(Cc2c(O)c3c(c(C(=O)/C=C/c4ccccc4)c2O)OC(C)(C)C=C3)c1O

[0, 0, 0, 0]

----------
# assayedTarget: RPS6KA5 KD1 (human) (UniProt O75582)
# Sequence (O75582 whole entry, looked up): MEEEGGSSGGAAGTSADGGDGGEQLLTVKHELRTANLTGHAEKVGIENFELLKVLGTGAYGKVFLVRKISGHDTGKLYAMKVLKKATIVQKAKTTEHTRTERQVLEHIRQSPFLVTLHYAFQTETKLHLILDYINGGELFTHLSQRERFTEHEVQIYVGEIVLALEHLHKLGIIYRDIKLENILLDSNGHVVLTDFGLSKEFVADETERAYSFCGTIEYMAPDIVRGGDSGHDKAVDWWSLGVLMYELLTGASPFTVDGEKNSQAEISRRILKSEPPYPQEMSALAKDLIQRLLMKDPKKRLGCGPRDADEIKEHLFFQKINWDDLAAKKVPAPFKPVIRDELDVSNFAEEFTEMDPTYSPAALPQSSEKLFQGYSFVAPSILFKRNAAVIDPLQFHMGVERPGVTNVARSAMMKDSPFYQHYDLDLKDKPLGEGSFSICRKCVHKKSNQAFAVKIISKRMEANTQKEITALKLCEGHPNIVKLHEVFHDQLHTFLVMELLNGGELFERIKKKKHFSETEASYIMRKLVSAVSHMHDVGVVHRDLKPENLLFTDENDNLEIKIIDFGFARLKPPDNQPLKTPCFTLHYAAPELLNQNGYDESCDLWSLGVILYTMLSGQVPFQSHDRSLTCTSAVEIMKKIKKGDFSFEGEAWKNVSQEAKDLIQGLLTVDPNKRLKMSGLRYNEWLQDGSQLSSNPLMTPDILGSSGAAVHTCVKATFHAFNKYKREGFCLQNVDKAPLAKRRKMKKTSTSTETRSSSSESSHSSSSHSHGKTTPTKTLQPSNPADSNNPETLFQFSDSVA
# assayOverview: split-luciferase competition binding
# conditionLabel: compound 10.0 µM
Hi there, I'd appreciate the recorded inhibition for every entry that follows.
Answers are plain numbers, in %.

Example entries and their recorded answers appear below.
C/C(O)=C(\C#N)C(=O)Nc1cc(Br)ccc1Br
0
Cc1ccc(-c2nn(C(C)(C)C)c3ncnc(N)c23)cc1
0
O=C(NC(NC(=S)Nc1ccc(F)c([N+](=O)[O-])c1)C(Cl)(Cl)Cl)C(c1ccccc1)c1ccccc1 (stereo unspecified)
2
O=C1NC(=O)c2cc(Nc3ccc(F)cc3)c(Nc3ccc(F)cc3)cc21
0
Oc1ccc(-c2nc(-c3ccc(F)cc3)c(-c3ccncc3)[nH]2)cc1
0
COc1cc2c(Nc3ccc(NC(=O)c4ccccc4)cc3)ncnc2cc1OCCCN1CCOCC1
0

List reported inhibition for each of these compounds:
1. Cn1cc(C2=C(c3ccc(Cl)cc3Cl)C(=O)NC2=O)c2ccccc21
2. O=C1c2ccccc2-c2n[nH]c3cccc1c23
3. O=c1cc(N2CCOCC2)oc2c1ccc1ccccc12
4. COc1nccc(-c2c(-c3ccc(F)cc3)ncn2[C@H]2CC[C@H](O)CC2)n1
5. C=CC(=O)c1ccc2ccccc2c1

1: 0; 2: 0; 3: 1; 4: 0; 5: 0
